The reported numbers originate from PubChem BioAssay.

Assay: COS7 lysate on small-molecule microarray, probe aHis, 635 nm (AID 1123);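 also: z-score combines 667nm fluorescence intensity with signal-to-noise per printed compound spot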
Conditions: COS7 cell lysate, fluorescence, higher = more signal
For each record, write down the corresponding composite z-score.
Hey, just send me the number, nothing else.

Find the measured composite z-score of "C[C@@]1([C@@H](NS(=O)(=O)c2cccc3cccnc23)c2ccc(-c3ccccc3)cc2)C[C@H]1C1CCCCC1" and report it.
2.06

Fill in composite z-score for record "COc1ccc([Si](C)(C)[C@H]2[C@H](CC(=O)N3CCC[C@H]3CO)O[C@@]3(C(=O)N(C)c4c(Br)cc(C)cc43)[C@@H]2C)cc1"
2.52

Let me know recorded composite z-score for "C=CCNC(=O)[C@H]1[C@@H]2C(=O)O[C@@H](c3ccccc3)[C@@H](c3ccccc3)N2[C@@H](c2ccc(O)cc2)[C@]12C(=O)Nc1ccc(C#CCC(C(=O)OC)C(=O)OC)cc12" , thanks.
1.23
